Molecular target: CDK7 (Homo sapiens)
Sequence (P50613 whole entry): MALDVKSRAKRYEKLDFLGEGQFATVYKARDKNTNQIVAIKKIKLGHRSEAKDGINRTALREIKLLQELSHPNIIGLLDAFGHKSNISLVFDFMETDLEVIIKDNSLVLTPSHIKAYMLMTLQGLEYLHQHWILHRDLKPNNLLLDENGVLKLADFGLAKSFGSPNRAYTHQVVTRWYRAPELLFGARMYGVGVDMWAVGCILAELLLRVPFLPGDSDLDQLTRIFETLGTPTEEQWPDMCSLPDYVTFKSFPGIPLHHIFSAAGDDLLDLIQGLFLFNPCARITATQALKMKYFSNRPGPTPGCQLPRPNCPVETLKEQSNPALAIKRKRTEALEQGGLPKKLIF
Test: NanoBRET live-cell target engagement, NanoLuc-CDK7 in HEK-293
Assay type: binding
Settings: CDK7; experiment 1; read-out: IC50
Can you tell me pIC50 for the items I'm about to list?
# log scale: pIC50 equals minus log10 of the concentration in mol/L

query: I would be grateful if you could share the reported pIC50 for N#CCNC(=O)c1ccc(-c2ccnc(Nc3ccc(N4CCOCC4)cc3)n2)cc1 .
result: 6.12

query: And then CN1CCN(Cc2ccc(NC(=O)Nc3ccc(Oc4ccnc(N)n4)cc3)cc2C(F)(F)F)CC1 , what is it?
result: 7.12

query: Moving on to the next compound: CN1CCN(c2ccc(Nc3ncc4cc(C#N)c(=O)n(C5CCCC5)c4n3)cc2)CC1
result: 6.85

query: CCn1cnc2c(Nc3cccc(Cl)c3)nc(N[C@@H]3CCCC[C@@H]3N)nc21 [CGP74514A] , same question.
result: 7.00

query: Request: CS(=O)(=O)N1CCC(NC(=O)c2[nH]ncc2NC(=O)c2c(Cl)cccc2Cl)CC1
result: 7.17

query: Let us now turn to COc1ccc(F)cc1-c1cc(NC(=O)C2CCCNC2)ncc1Cl (centres unmarked)
result: 7.08

query: // query: CC(C)c1c2cc(-c3ccnc(N[C@H]4CC[C@H](NC5CCOCC5)CC4)n3)ccc2nn1C
result: 7.55

query: Also check CC(C)c1cnn2c(NCc3ccccc3-n3cccn3)nc(OC3CCCNC3)nc12 (centres unmarked)
result: 7.77

* * *

Biological target: CDK6/Cyclin D1 (Homo sapiens)
Sequence (Q00534 whole entry): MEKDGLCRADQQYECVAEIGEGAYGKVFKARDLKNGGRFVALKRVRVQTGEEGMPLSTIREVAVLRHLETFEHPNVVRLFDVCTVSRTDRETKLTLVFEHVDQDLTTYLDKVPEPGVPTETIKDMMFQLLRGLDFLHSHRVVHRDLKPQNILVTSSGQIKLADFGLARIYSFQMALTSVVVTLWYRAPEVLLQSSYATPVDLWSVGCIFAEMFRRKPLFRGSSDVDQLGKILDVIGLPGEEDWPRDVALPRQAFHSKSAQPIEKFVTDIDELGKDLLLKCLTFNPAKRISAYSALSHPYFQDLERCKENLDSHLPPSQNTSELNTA
Sequence (P24385 whole entry partner): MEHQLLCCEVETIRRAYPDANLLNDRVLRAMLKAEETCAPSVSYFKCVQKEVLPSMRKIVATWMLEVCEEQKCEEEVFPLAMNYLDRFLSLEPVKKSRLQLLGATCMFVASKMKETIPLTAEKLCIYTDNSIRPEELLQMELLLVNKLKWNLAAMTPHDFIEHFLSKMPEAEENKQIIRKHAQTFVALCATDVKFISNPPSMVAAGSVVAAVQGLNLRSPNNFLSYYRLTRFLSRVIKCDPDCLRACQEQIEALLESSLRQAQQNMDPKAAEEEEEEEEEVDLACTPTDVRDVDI
Test: NanoBRET live-cell target engagement, NanoLuc-CDK6/Cyclin D1 in HEK-293
Assay type: binding
Settings: average (± SEM where n=3); read-out: CDK6/D1 IC50
assay.metric: IC50 (nM)
Give your result in nM as a bare value.

query: May I ask what IC50 has been recorded for CC(C)CC(=O)Nc1[nH]nc2c1CN(C(=O)C1CCN(C)CC1)C2(C)C [PHA-793887] ?
result: 430

query: Also COCCN1CCN(Cc2ccc(-c3n[nH]c4c3C(=O)c3c(NC(=O)NN5CCOCC5)cccc3-4)cc2)CC1 [RGB286638] ?
result: 12

query: Record: CN1C/C=C/CCOc2cccc(c2)-c2ccnc(n2)Nc2cccc(c2)C1 [SB1317]
result: 270

* * *

Provide the recorded Inhibition at 10µM (%) Replicate 2 for the entries that follow.
Target: CDK19/Cyclin C (Homo sapiens, UniProt Q9BWU1)
Sequence (Q9BWU1 whole entry): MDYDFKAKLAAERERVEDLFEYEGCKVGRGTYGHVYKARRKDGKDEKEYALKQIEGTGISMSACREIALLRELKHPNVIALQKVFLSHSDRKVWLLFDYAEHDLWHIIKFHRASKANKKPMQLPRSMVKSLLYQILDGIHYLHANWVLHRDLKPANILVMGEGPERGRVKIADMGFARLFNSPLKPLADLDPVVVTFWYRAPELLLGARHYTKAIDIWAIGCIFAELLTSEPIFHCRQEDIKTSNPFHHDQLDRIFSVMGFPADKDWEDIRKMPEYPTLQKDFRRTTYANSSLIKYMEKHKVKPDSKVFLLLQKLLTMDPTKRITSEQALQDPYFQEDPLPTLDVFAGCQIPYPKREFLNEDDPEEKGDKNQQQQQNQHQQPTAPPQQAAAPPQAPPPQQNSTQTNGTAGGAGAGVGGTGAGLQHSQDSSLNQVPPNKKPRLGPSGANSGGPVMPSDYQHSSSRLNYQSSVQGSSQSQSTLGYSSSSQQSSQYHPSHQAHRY
Sequence (P24863 whole entry partner): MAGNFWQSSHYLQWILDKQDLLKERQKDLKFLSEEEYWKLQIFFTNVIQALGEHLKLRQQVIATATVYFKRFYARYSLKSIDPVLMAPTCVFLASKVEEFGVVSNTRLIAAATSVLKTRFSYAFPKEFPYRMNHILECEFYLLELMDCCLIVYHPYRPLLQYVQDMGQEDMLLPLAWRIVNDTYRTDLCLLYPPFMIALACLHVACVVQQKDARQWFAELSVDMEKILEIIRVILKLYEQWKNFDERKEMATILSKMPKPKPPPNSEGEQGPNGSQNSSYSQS
Assay: NanoBRET live-cell target engagement, NanoLuc-CDK19/Cyclin C in HEK-293
Details: CDK19/C; 10µM
// return the numeric value with its unit appended

query: Form field: reported Inhibition at 10µM (%) Replicate 2 of CCC(CO)Nc1nc(Nc2cccc(-c3ccccn3)c2)c2ncn(C(C)C)c2n1.Cl.O [(R) - DRF053]
result: -0.8%

query: Another compound to look at: CNC1CCN(C(=O)c2ccc(Nc3ncc(F)c(-c4cnc(C)n4C(C)C)n3)cc2)C1 (stereo not shown) [AZD5597]
result: 89.0%

query: And CC(C)c1cnn2c(NCc3ccccc3)cc(N[C@@H](CO)[C@H](O)CO)nc12 [BS-194] ?
result: 19.3%

query: Now give it for O=C(Nc1c[nH]nc1-c1ccccn1)c1nn(C2CCNCC2)cc1Cl [BDP5290] too.
result: -7.7%

* * *

Kindly state inhibition at 10 µM for each of the entries shown.
Molecular target: CDK15/Cyclin Y (Homo sapiens, UniProt Q96Q40)
Sequence (Q96Q40 whole entry): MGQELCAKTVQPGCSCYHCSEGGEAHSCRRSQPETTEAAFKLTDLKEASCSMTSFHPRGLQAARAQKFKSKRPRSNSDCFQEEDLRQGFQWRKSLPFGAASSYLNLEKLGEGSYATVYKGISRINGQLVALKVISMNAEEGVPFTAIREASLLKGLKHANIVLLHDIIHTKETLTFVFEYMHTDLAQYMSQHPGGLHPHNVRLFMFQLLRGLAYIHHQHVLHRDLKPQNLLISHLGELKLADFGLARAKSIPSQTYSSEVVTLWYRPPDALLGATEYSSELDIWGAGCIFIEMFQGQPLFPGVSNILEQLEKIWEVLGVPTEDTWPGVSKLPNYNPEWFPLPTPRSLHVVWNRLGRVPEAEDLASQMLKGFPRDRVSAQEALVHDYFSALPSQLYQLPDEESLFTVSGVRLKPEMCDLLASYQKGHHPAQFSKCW
Sequence (Q8ND76 whole entry partner): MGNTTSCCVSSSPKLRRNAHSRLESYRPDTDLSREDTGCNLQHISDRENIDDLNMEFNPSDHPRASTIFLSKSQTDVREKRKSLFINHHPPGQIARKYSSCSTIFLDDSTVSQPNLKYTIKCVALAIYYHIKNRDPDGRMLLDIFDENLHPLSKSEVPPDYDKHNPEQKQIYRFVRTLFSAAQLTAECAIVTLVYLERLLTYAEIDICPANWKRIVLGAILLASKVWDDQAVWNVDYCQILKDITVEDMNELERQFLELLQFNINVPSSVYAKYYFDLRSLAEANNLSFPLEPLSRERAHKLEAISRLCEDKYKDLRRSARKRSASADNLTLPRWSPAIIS
Assay: NanoBRET live-cell target engagement, NanoLuc-CDK15/Cyclin Y in HEK-293
Assay type: binding
Details: CDK15/Y; average; read-out: Inhibition at 10µM (%)
Quick reminder: number only, in %, skip the unit.

query: Item CC(C)c1cnn2c(NCc3ccccc3)cc(NC[C@H]3CCNC[C@@H]3O)nc12 has what recorded inhibition at 10 µM?
result: 76.4

query: Note, next up: CN1CCN(Cc2ccc(NC(=O)Nc3ccc(Oc4ccnc(N)n4)cc3)cc2C(F)(F)F)CC1
result: 80.7

query: Similarly, CC(C)N1CCN(c2ccc(Nc3ncc4cc5n(c4n3)C3(CCCCC3)CNC5=O)nc2)CC1 ?
result: 14.9

query: What do we get for COc1ccc(F)cc1-c1cc(NC(=O)C2CCCNC2)ncc1Cl (stereo not shown) ?
result: 92.4

* * *

Target: CDK8/Cyclin C (Homo sapiens, UniProt P49336)
Sequence (P49336 whole entry): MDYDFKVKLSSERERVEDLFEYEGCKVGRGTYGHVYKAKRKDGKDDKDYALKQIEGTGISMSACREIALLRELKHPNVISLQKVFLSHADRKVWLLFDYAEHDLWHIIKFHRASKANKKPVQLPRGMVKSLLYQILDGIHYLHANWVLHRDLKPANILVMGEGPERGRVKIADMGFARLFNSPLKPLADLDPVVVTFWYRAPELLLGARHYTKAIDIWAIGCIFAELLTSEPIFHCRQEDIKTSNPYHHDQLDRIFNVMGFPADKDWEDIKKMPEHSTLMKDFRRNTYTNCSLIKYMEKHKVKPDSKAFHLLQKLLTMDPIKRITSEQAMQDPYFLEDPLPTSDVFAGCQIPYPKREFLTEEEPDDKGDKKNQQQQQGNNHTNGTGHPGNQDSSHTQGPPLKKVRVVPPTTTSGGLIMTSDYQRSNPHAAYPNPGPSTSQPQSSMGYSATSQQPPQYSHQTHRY
Sequence (P24863 whole entry partner): as the sequence (P24863 whole entry partner) above
Assay: NanoBRET live-cell target engagement, NanoLuc-CDK8/Cyclin C in HEK-293
Format: binding
Conditions: CDK8/C; 10µM
assay.metric: Inhibition at 10µM (%) Replicate 1

query: Requested read-out Inhibition at 10µM (%) Replicate 1, target or system CDK8/Cyclin C (Homo sapiens, UniProt P49336), entry CC(C)c1cnn2c(NCc3ccccc3)cc(N[C@@H](CO)[C@H](O)CO)nc12
result: 28.1%

query: Repeat with CCC(CO)Nc1nc(Nc2cccc(-c3ccccn3)c2)c2ncn(C(C)C)c2n1.Cl.O [(R) - DRF053]
result: 6.6%

query: And what about the compound CNC1CCN(C(=O)c2ccc(Nc3ncc(F)c(-c4cnc(C)n4C(C)C)n3)cc2)C1 (stereo not shown) ?
result: 91.3%

query: Request: O=C(Nc1c[nH]nc1-c1ccccn1)c1nn(C2CCNCC2)cc1Cl
result: 6.1%

* * *

Biological target: CDK12/Cyclin K (Homo sapiens, UniProt Q9NYV4)
Assay: NanoBRET live-cell target engagement, CDK12-NanoLuc/Cyclin K in HEK-293
Format: binding
Settings: CDK12/K; 10µM
For each entry below, report its Inhibition at 10µM (%) Replicate 1 value.
The reply should be a number in %, with the unit left off.

query: For CNC1CCN(C(=O)c2ccc(Nc3ncc(F)c(-c4cnc(C)n4C(C)C)n3)cc2)C1 (stereo not shown) , what is its reported Inhibition at 10µM (%) Replicate 1?
result: 44.4

query: Try this compound next: O=C(Nc1c[nH]nc1-c1ccccn1)c1nn(C2CCNCC2)cc1Cl
result: 6.2

query: Now give it for CCC(CO)Nc1nc(Nc2cccc(-c3ccccn3)c2)c2ncn(C(C)C)c2n1.Cl.O [(R) - DRF053] too.
result: 4.1

query: Entry to check: CC(C)c1cnn2c(NCc3ccccc3)cc(N[C@@H](CO)[C@H](O)CO)nc12
result: 52.0

* * *

Molecular target: CDK14/Cyclin Y (Homo sapiens, UniProt O94921)
Sequence (O94921 whole entry, one chain of several): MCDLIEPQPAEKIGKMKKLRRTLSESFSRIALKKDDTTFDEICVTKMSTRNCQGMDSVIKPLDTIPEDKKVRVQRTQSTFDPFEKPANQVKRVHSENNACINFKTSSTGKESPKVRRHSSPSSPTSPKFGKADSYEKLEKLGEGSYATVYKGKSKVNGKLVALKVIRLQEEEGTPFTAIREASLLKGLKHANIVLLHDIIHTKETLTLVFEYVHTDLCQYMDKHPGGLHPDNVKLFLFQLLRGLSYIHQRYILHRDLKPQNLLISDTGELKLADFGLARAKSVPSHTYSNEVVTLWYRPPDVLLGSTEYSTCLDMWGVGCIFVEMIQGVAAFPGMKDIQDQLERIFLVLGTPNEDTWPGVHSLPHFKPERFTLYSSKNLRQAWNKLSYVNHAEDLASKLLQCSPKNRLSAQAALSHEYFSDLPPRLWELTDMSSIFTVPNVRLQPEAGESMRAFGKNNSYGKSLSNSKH
Test: NanoBRET live-cell target engagement, CDK14-NanoLuc/Cyclin Y in HEK-293
Format: binding
Conditions: CDK14/Y; 10µM; read-out: Inhibition at 10µM (%) Replicate 1
assay.metric: inhibition at 10 µM
Could you give the number and then its unit, please?

query: Looking for the measured inhibition at 10 µM of COc1cc(F)ccc1-c1ncnc(Nc2cccc(C[S@](C)(=N)=O)c2)n1 [Atuveciclib] , can you help?
result: 8.4%

query: Also CCCCOc1c(C(=O)c2c(F)cc(C)cc2F)c[nH]c2nncc1-2 [BMS-265246] ?
result: 68.1%

query: Same question, COc1cc(F)ccc1-c1cc(Nc2cc(CS(C)(=N)=O)ccn2)ncc1F (stereo not shown) [BAY-1251152] this time
result: 16.7%

query: Another: Cc1ncc(-c2ccnc(Nc3ccc(S(C)(=O)=O)cc3)n2)n1C(C)C [AZD5438]
result: 69.6%

* * *

Target: CDK20/Cyclin H (Homo sapiens)
Sequence (Q8IZL9 whole entry): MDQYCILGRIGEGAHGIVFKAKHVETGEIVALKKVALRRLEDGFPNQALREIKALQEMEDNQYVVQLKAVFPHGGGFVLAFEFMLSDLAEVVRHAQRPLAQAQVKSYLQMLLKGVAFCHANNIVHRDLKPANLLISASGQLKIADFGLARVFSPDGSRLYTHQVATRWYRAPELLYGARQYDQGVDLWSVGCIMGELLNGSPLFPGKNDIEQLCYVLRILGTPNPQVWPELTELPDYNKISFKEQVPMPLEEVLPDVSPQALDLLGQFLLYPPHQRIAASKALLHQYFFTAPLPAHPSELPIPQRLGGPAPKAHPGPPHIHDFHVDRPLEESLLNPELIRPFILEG
Sequence (P51946 whole entry partner): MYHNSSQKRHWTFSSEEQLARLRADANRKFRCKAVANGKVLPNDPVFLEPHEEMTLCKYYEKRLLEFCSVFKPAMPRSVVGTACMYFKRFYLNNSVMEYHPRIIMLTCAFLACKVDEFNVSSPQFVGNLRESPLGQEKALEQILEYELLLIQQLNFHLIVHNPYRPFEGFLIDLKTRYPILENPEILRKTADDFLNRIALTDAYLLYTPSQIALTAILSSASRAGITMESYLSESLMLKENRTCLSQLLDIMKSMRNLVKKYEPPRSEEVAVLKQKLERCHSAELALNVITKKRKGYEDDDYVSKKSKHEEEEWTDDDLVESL
Test: NanoBRET live-cell target engagement, NanoLuc-CDK20/Cyclin H in HEK-293
Assay type: binding
Settings: 10µM; independent experiment 1; read-out: CDK20/H Inhibition at 10µM (%)
Decide using inhibition at 10 µM: a value greater than or equal to 30% is true, a smaller one is false.

query: // inclusive: inhibition at 10 µM at least 30%? input: CC(C)[C@H](CO)Nc1nc(Nc2ccc(C(=O)O)c(Cl)c2)c2ncn(C(C)C)c2n1
result: false

query: Same for CN1C/C=C/CCOc2cccc(c2)-c2ccnc(n2)Nc2cccc(c2)C1
result: true

query: # repeat for CC(C)CC(=O)Nc1[nH]nc2c1CN(C(=O)C1CCN(C)CC1)C2(C)C
result: false

query: Lookup CN1CCN(c2ccc(Nc3ncc4cc5n(c4n3)C3(CCCCC3)CNC5=O)nc2)CC1
result: false

query: Another compound: CN(C)C(=O)c1cc2cnc(Nc3ccc(N4CCNCC4)cn3)nc2n1C1CCCC1
result: false

query: Try this compound too: CC(=O)c1c(C)c2cnc(Nc3ccc(N4CCNCC4)cn3)nc2n(C2CCCC2)c1=O
result: true

* * *

Target: CDK11A/Cyclin L2 (Homo sapiens, UniProt Q9UQ88)
Sequence (Q9UQ88 1-783): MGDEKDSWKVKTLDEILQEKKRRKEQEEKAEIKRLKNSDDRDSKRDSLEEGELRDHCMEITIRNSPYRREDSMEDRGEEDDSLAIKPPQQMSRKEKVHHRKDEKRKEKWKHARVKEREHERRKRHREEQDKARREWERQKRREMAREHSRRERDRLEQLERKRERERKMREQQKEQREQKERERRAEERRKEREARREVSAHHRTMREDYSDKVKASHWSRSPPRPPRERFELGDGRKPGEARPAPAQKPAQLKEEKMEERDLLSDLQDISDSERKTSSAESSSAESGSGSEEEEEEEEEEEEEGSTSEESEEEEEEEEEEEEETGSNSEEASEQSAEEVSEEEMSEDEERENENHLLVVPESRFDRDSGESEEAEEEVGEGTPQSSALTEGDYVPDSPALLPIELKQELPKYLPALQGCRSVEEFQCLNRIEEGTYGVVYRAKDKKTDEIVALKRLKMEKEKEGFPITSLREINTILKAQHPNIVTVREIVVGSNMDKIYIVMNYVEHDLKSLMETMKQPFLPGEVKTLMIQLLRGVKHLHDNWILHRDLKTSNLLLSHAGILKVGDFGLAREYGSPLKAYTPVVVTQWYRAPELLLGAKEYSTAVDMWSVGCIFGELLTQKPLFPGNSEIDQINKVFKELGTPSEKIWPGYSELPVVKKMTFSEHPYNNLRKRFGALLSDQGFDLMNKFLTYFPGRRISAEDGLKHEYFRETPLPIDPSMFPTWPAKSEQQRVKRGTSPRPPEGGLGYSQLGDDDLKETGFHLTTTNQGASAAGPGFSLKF
Experiment: NanoBRET live-cell target engagement, CDK11A-NanoLuc/Cyclin L2 in HEK-293
Format: binding
Conditions: CDK11a/L2; average
Kind request: treat 40% as inclusive, so Inhibition at 10µM (%) at 40% or higher is Yes, anything lower is No.

query: Is it the case that CNc1nc(C)c(-c2nc(Nc3cccc(S(N)(=O)=O)c3)ncc2F)s1 has Inhibition at 10µM (%) reaching or exceeding 40%?
result: Yes

query: How about CS(=O)(=O)N1CCC(NC(=O)c2[nH]ncc2NC(=O)c2c(Cl)cccc2Cl)CC1 ?
result: Yes

query: Note, next up: CCn1cnc2c(Nc3cccc(Cl)c3)nc(N[C@@H]3CCCC[C@@H]3N)nc21 [CGP74514A]
result: No

query: Then what about the compound CC(C)c1cnn2c(NCc3ccccc3-n3cccn3)nc(OC3CCCNC3)nc12 (stereo not drawn) ?
result: Yes

query: Same for CC(C)c1c2cc(-c3ccnc(N[C@H]4CC[C@H](NC5CCOCC5)CC4)n3)ccc2nn1C
result: Yes

query: And for CN1CCC(c2c(O)cc(O)c3c(=O)cc(-c4ccccc4Cl)oc23)C1CO (stereo not drawn) ?
result: No
